experiment: qHTS for Inhibitors of human tyrosyl-DNA phosphodiesterase 1 (TDP1): qHTS in cells in presence of CPT; details: chicken DT40 Tdp1-/-;hTDP1 cells + 20 nM CPT, ATP luminescence, 48 h; series mostly up to 46.2 µM; also: nearly all actives have a fitted effect of over 55% in size
The whole screen tested about 420,000 compounds, of which about 50,000 (12%) were called active. Inconclusive results (about 26%) are left out. Calls follow the shape of the dose curve; as a rule, active = well fitted inhibition curve with a large enough effect; inconclusive = small, poorly fitted or top-dose-only effect; inactive = flat fitted curve, though single readings scatter. This excerpt belongs to a sample that is enriched for actives.
Valid outcomes are listed here; reply with one: active, inactive

These recorded examples may help you get a feel for the data.
- Compound: "C[C@H]1CN([C@@H](C)CO)C(=O)CCCn2nncc2CO[C@@H]1CN(C)Cc1ccc(Oc2ccccc2)cc1"
  Group Label: "active"
- Compound: "CN1CC(=O)N=C1N"
  Group Label: "inactive"
- Compound: "COc1cccc(CNC(=O)C2CCCN(c3ncnc4c3nc3n4CCCCC3)C2)c1 (stereo not given)"
  Group Label: "active"
- Compound: "C[C@H](CO)N1C[C@H](C)[C@@H](CN(C)Cc2ccc3c(c2)OCO3)OCc2cnnn2CCCC1=O"
  Group Label: "inactive"
- Compound: "C/C(=N\\NC(=O)CCn1nc(C)cc1C)C(C)(C)C"
  Group Label: "inactive"

Fill in: this test's call for O=C(Cn1c(-c2cscn2)nc2ccccc21)Nc1ccc(Cl)cc1 is ___
active

Fill in: this test's call for COc1cccc(CNC(=O)C2CCCN(S(=O)(=O)N3CC(C)CC(C)C3)C2)c1 (stereo not given) is ___
inactive

Fill in: this test's call for C[C@H](CO)N1C[C@H](C)[C@H](CN(C)CC2CC2)Oc2ccc(NC(=O)CCN3CCOCC3)cc2C1=O is ___
inactive

Fill in: this test's call for COc1cccc(NC(=O)C2CCN(c3cc(C)nc4c(-c5ccc(Cl)cc5)c(C)nn34)CC2)c1 is ___
inactive

Fill in: this test's call for CC(=O)c1cccc(NC(=O)CSc2nc3c(c(=O)[nH]2)CCC3)c1 is ___
inactive

Fill in: this test's call for Fc1ccc(-c2nc(Nc3cccc(Cl)c3)nc3c2COc2ccccc2-3)cc1 is ___
inactive

Fill in: this test's call for Cc1noc(NS(=O)(=O)c2ccc(NC(=O)c3oc4ccc(F)cc4c3C)cc2)c1C is ___
inactive

Fill in: this test's call for COc1ccc(-c2cnc3c(c2)C(=O)N([C@H](C)CO)C[C@@H](C)[C@H](CN(C)Cc2ccccc2)O3)cc1 is ___
active

Fill in: this test's call for COC(=O)C1=NNC2(c3ccc(C)cc3)C(=O)N(c3cccc(C)c3C)C(=O)C12 (stereo not given) is ___
inactive

Fill in: this test's call for CCCCN(C(=O)COc1ccc(NC(C)=O)cc1)C1CCS(=O)(=O)C1 (stereo not given) is ___
inactive

Fill in: this test's call for COc1cc(C=NC2CCCCC2)ccc1O is ___
inactive

Fill in: this test's call for COc1cccc(N2CC(NS(=O)(=O)c3ccc(Cl)cc3)CC2=O)c1 (stereo not given) is ___
inactive

Fill in: this test's call for Cc1ccc(CN(C)C[C@@H]2OCc3cnnn3CCCC(=O)N([C@@H](C)CO)C[C@H]2C)cc1 is ___
inactive

Fill in: this test's call for COc1cccc(NC(=O)C2CCCN(c3ncnc4c3nc3n4CCCCC3)C2)c1 (stereo not given) is ___
active

Fill in: this test's call for C[C@H]1CN([C@@H](C)CO)C(=O)c2cc(-c3cccc(F)c3)cnc2O[C@@H]1CN(C)S(C)(=O)=O is ___
inactive
